Tested on: Yersinia pseudotuberculosis
Assay: Effect on T3S in Yersinia pseudotuberculosis 3 pIB29 assessed as inhibition of light emission at 50 uM by luciferase reporter gene assay
readoutLabel: inhibition (%)
Could you give me the number in %? Just the number is fine.

Example molecules with recorded inhibition:
O=C(Nc1ccc2cccnc2c1)c1cc(Cl)ccc1NS(=O)(=O)c1ccccc1
7
CC(=O)c1ccc(S(=O)(=O)Nc2cc(Cl)ccc2C(=O)Nc2ccc(F)c(Cl)c2)cc1
70
O=C(Nc1ccc(Cl)c(Cl)c1)c1ccc(Cl)cc1NS(=O)(=O)c1cccc2nsnc12
71

Qu. I have this molecule here, "CN(C)c1ccc(NC(=O)c2cc(Cl)ccc2NS(=O)(=O)c2cccc([N+](=O)[O-])c2)cc1" , and I need its recorded inhibition.
Ans. 8

Qu. What do you get for "O=C(Nc1cccc(Cl)c1)c1cc(Cl)ccc1NS(=O)(=O)c1cccc2nsnc12" ?
Ans. 47

Qu. What do you get for "O=C(Nc1ccccc1)c1cc(Cl)ccc1NS(=O)(=O)c1cccc2nsnc12" ?
Ans. 9

Qu. What do you get for "O=C(Nc1ccc(Cl)c(Cl)c1)c1cc(F)c(F)cc1NS(=O)(=O)c1cccc([N+](=O)[O-])c1" ?
Ans. 79

Qu. What do you get for "O=C(Nc1ccc(F)cc1)c1cc(F)c(F)cc1NS(=O)(=O)c1cccc(F)c1" ?
Ans. 71

Qu. What do you get for "O=C(Nc1ccc2c(c1)OCO2)c1ccc(Cl)cc1NS(=O)(=O)c1ccc(Cl)c(Cl)c1" ?
Ans. 74

Qu. What do you get for "COc1ccc(NC(=O)c2ccc(Cl)cc2NS(=O)(=O)c2ccc(Cl)c(Cl)c2)cc1" ?
Ans. 72
